# System: CU-ACC1
# assay comment: area under concentration-response curve (viability) (AUC (a.u.)); higher = less active
# measurement conditions: 48 h
Assign Met whenever area under concentration-response curve does not fall below 500; assign Not met whenever it does.

>  <molecule>
CCCC\1=C(/CNC(=O)C2=CC(=CC3=C2C=N[N]3C(C)C)C4=CC=C(N=C4)N5CCN(CC5)C(C)C)C(=O)NC(=C1)\C

>  <target of assay>
CU-ACC1

>  <assigned label>
Not met

$$$$
>  <molecule>
C[C@]12CCC3[C@@H](CC[C@H]4NC(=O)\C=C/[C@]34C)[C@@H]1CC[C@@H]2C(=O)NC5=CC(=CC=C5C(F)(F)F)C(F)(F)F (stereo partly specified)

>  <target of assay>
CU-ACC1

>  <assigned label>
Met

$$$$
>  <molecule>
C[C@]12COC(=O)C[C@@H]1CC[C@@H]1[C@@H]2CC[C@@]2(C)[C@H]1CC[C@]2(C)O

>  <target of assay>
CU-ACC1

>  <assigned label>
Not met

$$$$
>  <molecule>
c1ccc(-c2oc3ncnc(NC[C@@H]4CCCO4)c3c2-c2ccccc2)cc1

>  <target of assay>
CU-ACC1

>  <assigned label>
Met

$$$$
>  <molecule>
C=CC(=O)N1CC[C@@H](Oc2nc(Nc3ccc(N4CCC(N5CCN(C)CC5)CC4)cc3)c(C(N)=O)nc2CC)C1

>  <target of assay>
CU-ACC1

>  <assigned label>
Met

$$$$
>  <molecule>
O=C1\C=C/C=C2/[C@H]3CNC[C@H](C3)CN12

>  <target of assay>
CU-ACC1

>  <assigned label>
Met

$$$$
>  <molecule>
C=CC(=O)Nc1cccc(Oc2nc(Nc3ccc(N4CCN(C)CC4)cc3OC)ncc2Cl)c1

>  <target of assay>
CU-ACC1

>  <assigned label>
Not met

$$$$
>  <molecule>
CCC1(c2ccc(N)cc2)CCC(=O)NC1=O (stereo unspecified)

>  <target of assay>
CU-ACC1

>  <assigned label>
Met

$$$$
>  <molecule>
Nc1ncnc2c1nc(Cl)n2[C@@H]1O[C@H](CO)[C@@H](O)[C@H]1O

>  <target of assay>
CU-ACC1

>  <assigned label>
Not met

$$$$
>  <molecule>
CNCc1ccc(-c2[nH]c3cc(F)cc4c3c2CCNC4=O)cc1

>  <target of assay>
CU-ACC1

>  <assigned label>
Not met

$$$$
>  <molecule>
CC(=O)[C@]1(O)Cc2c(O)c3c(c(O)c2[C@@H](O[C@H]2C[C@H](N)[C@H](O)[C@H](C)O2)C1)C(=O)c1ccccc1C3=O

>  <target of assay>
CU-ACC1

>  <assigned label>
Not met

$$$$
